test_system: CXCR4 (Homo sapiens, UniProt P61073)
Construct: endogenous in cells; host or cells: MDA-MB-231
Sequence (P61073 whole entry): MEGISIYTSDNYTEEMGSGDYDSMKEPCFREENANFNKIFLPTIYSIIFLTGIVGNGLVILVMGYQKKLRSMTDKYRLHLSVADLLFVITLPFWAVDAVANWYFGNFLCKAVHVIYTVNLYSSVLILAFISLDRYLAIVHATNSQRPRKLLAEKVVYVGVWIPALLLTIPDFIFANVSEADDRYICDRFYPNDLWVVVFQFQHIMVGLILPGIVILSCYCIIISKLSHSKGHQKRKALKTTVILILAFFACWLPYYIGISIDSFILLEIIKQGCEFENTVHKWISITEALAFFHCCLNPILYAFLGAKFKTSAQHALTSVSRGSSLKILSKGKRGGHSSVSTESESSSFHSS
experimental_protocol: Primary binding affinity screening (competition with biotinylated TN14003)
condition_summary: effective concentration = lowest concentration with significant reduction of rhodamine fluorescence; MDA-MB-231 cells; tested at 1, 10, 100, 1000 nM
outcome_measure: EC

q: Item CN(Cc1ccc(CN(C)Cc2cccnc2)cc1)Cc1cccnc1 has what recorded EC?
a: >1000 nM

q: Item CN(Cc1ccc(CN(C)Cc2ccccc2F)cc1)Cc1ccccc1F has what recorded EC?
a: >1000 nM

q: Item c1cc(CN2CCOCC2)ccc1CN1CCOCC1 has what recorded EC?
a: >1000 nM

q: Item CN(Cc1ccc(CN(C)Cc2cccc(F)c2)cc1)Cc1cccc(F)c1 has what recorded EC?
a: >1000 nM

q: Item COc1cccc(CN(C)Cc2cccc(CN(C)Cc3cccc(OC)c3)n2)c1 has what recorded EC?
a: 10 nM

q: Item c1cc(CN2CCCCC2)ccc1CN1CCCCC1 has what recorded EC?
a: 10 nM

q: Item c1ccc(CN(Cc2cccc(CN(Cc3ccccc3)CC3CC3)n2)CC2CC2)cc1 has what recorded EC?
a: 1 nM

q: Item CN(Cc1cccc(F)c1)Cc1cccc(CN(C)Cc2cccc(F)c2)n1 has what recorded EC?
a: >1000 nM

q: Item CN(Cc1ccncc1)Cc1cccc(CN(C)Cc2ccncc2)n1 has what recorded EC?
a: >1000 nM

q: Item CN(Cc1cccc(Cl)c1)Cc1cccc(CN(C)Cc2cccc(Cl)c2)n1 has what recorded EC?
a: 10 nM

====

test_system: CXCR4 (Homo sapiens)
Construct: endogenous in cells; host or cells: MDA-MB-231
experimental_protocol: Primary binding affinity screening (competition with biotinylated TN14003)
condition_summary: effective concentration = lowest concentration with significant reduction of rhodamine fluorescence; MDA-MB-231 cells; tested at 1, 10, 100, 1000 nM
outcome_measure: EC

Examples with their reported EC follow.
CCN(Cc1ccccc1)Cc1cccc(CN(CC)Cc2ccccc2)n1	>1000 nM
CN(Cc1ccc(CN(C)Cc2ccccc2Cl)cc1)Cc1ccccc1Cl	>1000 nM
CN(Cc1ccc(CN(C)Cc2ccccn2)cc1)Cc1ccccn1	>1000 nM
CN(Cc1ccncc1)Cc1ccc(CN(C)Cc2ccncc2)cc1	>1000 nM

With those in mind, consider the next compound.
q: Item CN(Cc1cccnc1)Cc1cccc(CN(C)Cc2cccnc2)n1 has what recorded EC?
a: >1000 nM

====

EC for assorted compounds
test_system: CXCR4 (Homo sapiens)
Construct: endogenous in cells; host or cells: MDA-MB-231
experimental_protocol: Primary binding affinity screening (competition with biotinylated TN14003)
condition_summary: effective concentration = lowest concentration with significant reduction of rhodamine fluorescence; MDA-MB-231 cells; tested at 1, 10, 100, 1000 nM
# number only, unit nM dropped from output

Examples with their reported EC follow.
CN(Cc1cccc(CN(C)Cc2ccccc2F)n1)Cc1ccccc1F	1000
CN(Cc1cccc(CN(C)c2ccccc2)n1)c1ccccc1	1000
CCN(Cc1ccccc1)Cc1ccc(CN(CC)Cc2ccccc2)cc1	1000

With those in mind, consider the next compound.
q: Give EC (CXCR4 (Homo sapiens)) of the following compound: CN(Cc1ccccn1)Cc1cccc(CN(C)Cc2ccccn2)n1
a: 10
